Ref: PubChem BioAssay (EPA / NIEHS)

Read-out: Monokine induced gamma interferon (MIG), CXCL9 (gene 4283)
assay-notes: BSK_3C_MIG: BioMAP Diversity Plus: 3C Assay for Monokine induced gamma interferon (MIG) Biomarker Activity (AID 2283021)
settings: primary human endothelial cells (HUVEC); actives raise or lower the signal
The source made the active and inactive calls. Rule for the calls: active = hit-call score of the fitted dose curve at least 0.9, where 1 is the maximum; inactive = score below 0.9.
# output must be one of 1.0 (active), 0.0 (inactive)

Completed entries (count: 3):
| molecule | class-assignment |
| --- | --- |
| COc1ccc(-n2nc(C(F)F)cc2-c2ccc(S(C)=O)cc2)cc1 (stereo not drawn) | 0.0 |
| CCc1cc(SCc2sc(-c3ccc(C(F)(F)F)cc3)nc2CN2CCN(c3ccc(OC)cc3)CC2)ccc1OCC(=O)O | 1.0 |
| CCCCC(CC)COC(=O)c1ccc(C(=O)OCC(CC)CCCC)cc1 (stereo not drawn) | 0.0 |

QUERY: I'd appreciate the recorded outcome for Fc1ccccc1[C@@H](F)COC1CCC(Nc2ncnc3[nH]ncc23)CC1 (stereo partly drawn) from this test.
RESULT: 0.0

QUERY: Name the outcome recorded for `CC(C)CCCCCCOC(=O)c1ccc(C(=O)OCCCCCCC(C)C)c(C(=O)OCCCCCCC(C)C)c1` in the assay.
RESULT: 0.0

QUERY: Hello, I am checking results. What call was entered for `CCCC(=O)OCC` ?
RESULT: 0.0

QUERY: What call does the record list for `Clc1nc(Cl)c(Cl)c(Cl)c1Cl` ?
RESULT: 0.0

QUERY: How did this test come out for `O=P(OC(CCl)CCl)(OC(CCl)CCl)OC(CCl)CCl` ?
RESULT: 0.0

QUERY: GET /call?item= CNS(=O)(=O)c1cc(C(=O)N2CCC(CCN3C4CCC3CC(n3c(C)nc5ccccc53)C4)(c3cccc(F)c3)CC2)c(Cl)cc1F (stereo not drawn) returns the recorded outcome of this test.
RESULT: 0.0

QUERY: Which outcome did this test record for the molecule `CC[C@H]1OC(=O)[C@H](C)[C@@H](O[C@H]2C[C@@](C)(OC)[C@@H](O)[C@H](C)O2)[C@H](C)[C@@H](O[C@@H]2O[C@H](C)C[C@H](N(C)C)[C@H]2O)[C@](C)(O)C[C@@H](C)C(=O)[C@H](C)[C@@H](O)[C@]1(C)O` ?
RESULT: 0.0

QUERY: What did this assay record as the result for `O=C(O)c1cccc(Oc2ccccc2)c1` ?
RESULT: 0.0

QUERY: Per the assay record, what outcome was assigned to `CNCc1ccc(NC(=O)c2c[nH]c3c2C(=O)CCC3)cc1` ?
RESULT: 0.0

QUERY: Hi, sorry to bother you, what did the test record for `O=C(NS(=O)(=O)/C=C/c1ccccc1)c1ccc(F)cc1Cl` ?
RESULT: 0.0

QUERY: Recorded test call requested for `NC(=O)NO`
RESULT: 0.0

QUERY: Please indicate how the test categorized CC(C)=CCCC(C)CCO (stereo not drawn) .
RESULT: 0.0

QUERY: Status in this test for `O=C(O)c1cccc(N(Cc2cccnc2)c2ccc(OC(F)F)c(OC(F)F)c2)c1` ?
RESULT: 0.0

QUERY: Assay outcome for `CCOCCO` : what was it?
RESULT: 0.0

QUERY: Fill in: this test's call for `CCCCCCCCCCCCc1ccccc1` is ___
RESULT: 0.0

QUERY: Per the records of this test, what outcome belongs to `CC(C)=CCC/C(C)=C/CO` ?
RESULT: 0.0

QUERY: Hi team, can someone confirm the assay call for `C[C@](N)(Cc1ccc(O)c(O)c1)C(=O)O` ?
RESULT: 0.0

QUERY: What classification did O=C1OC(=O)C2C3C=CC(C3)C12 (stereo not drawn) end up with in this test?
RESULT: 0.0

QUERY: Hello, I am checking results. What call was entered for `CC(C)=CCC/C(C)=C\CO` ?
RESULT: 0.0

QUERY: Field: outcome | Entry: CCCCC(CC)COC(=O)CCCCCCCCC(=O)OCC(CC)CCCC (stereo not drawn)
RESULT: 0.0
